Provenance of the data: patent US20110059043A1

Tested on: HCV replicon cells Huh 9B
protocolDescription: HCV replicon assay (luciferase)
Assay type: cell-based
conditionSet: Hepatitis C virus, reduction of replicon level by 50% vs untreated cell control, 72 h
Protocol: HCV replicon cells Huh 9B (ReBlikon), containing the firefly luciferase—ubiquitin—neomycin phosphotransferase fusion protein and EMCV-IRES driven HCV polyprotein with cell culture adaptive mutations. […] The M injector of the microplate luminometer (Lmax, Molecular Devices) was primed with 5×300 μl injections of the diluted substrate. […] The signal was measured using a 1 second delay followed by a 4 second measurement programme. […]
measuredMetric: IC50 (nM)
Provide only the numeric value, understood in nM.

Q: Consider the compound COCC(C)Oc1ccc(Cl)cc1C(=O)NC1N=C(c2c(Cl)cc(Cl)cc2Cl)c2ccccc2NC1=O (stereo not shown) [Example 4] and give its measured IC50.
Result: 304

Q: Report IC50 for COCCOc1ccc(C(C)=O)cc1C(=O)NC1N=C(c2c(Cl)cc(Cl)cc2Cl)c2ccccc2NC1=O (stereo not shown) [Example 18] please.
Result: 876

Q: Entry under review: CO[C@@H](C)COc1ccc(Cl)cc1C(=O)NC1N=C(c2c(Cl)cc(Cl)cc2Cl)c2ccccc2NC1=O (stereo partly shown) [Example 2] . Reported IC50?
Result: 382

Q: Look up IC50 for this compound: CCCCCOCCOc1ccc(Cl)cc1C(=O)NC1N=C(c2c(Cl)cc(Cl)cc2Cl)c2ccccc2NC1=O (stereo not shown) [Example 7]
Result: 1450

###

Hi there, I'd appreciate the recorded Replicon Assay Value TD50 for every entry that follows.
Test system: HCV replicon cells Huh 9B
Assay type: cell-based
conditionSet: concentration reducing total cell area by 50% relative to DMSO controls; 72 h

Q: Fill blank: measured Replicon Assay Value TD50 of the compound COCCOc1ccc(F)cc1C(=O)N[C@H]1N=C(c2c(Cl)cc(Cl)cc2Cl)c2ccccc2NC1=O [Example 61] is ____.
Result: 17.347 µM

Q: Consider the compound shown here: CCNC(=O)NCCOc1ccc(Cl)cc1C(=O)NC1N=C(c2c(Cl)cc(Cl)cc2Cl)c2ccccc2NC1=O (stereo not drawn) [Example 24] What is its recorded Replicon Assay Value TD50?
Result: 11.815 µM

Q: Item CC(C)OCCOc1ncc(F)cc1C(=O)NC1N=C(c2c(Cl)cc(Cl)cc2Cl)c2ccccc2NC1=O (stereo not drawn) [Example 36] has what recorded Replicon Assay Value TD50?
Result: 13.55 µM

Q: Please give the measured Replicon Assay Value TD50 for this compound: CCOCCCOc1ncc(F)cc1C(=O)NC1N=C(c2c(Cl)cc(Cl)cc2Cl)c2ccccc2NC1=O (stereo not drawn) [Example 39]
Result: 11.83 µM

Q: Quick check: Replicon Assay Value TD50 of CCN(CCOC)c1ncc(F)cc1C(=O)NC1N=C(c2c(Cl)cc(Cl)cc2Cl)c2ccccc2NC1=O (stereo not drawn) [Example 43] ?
Result: 23.97 µM

Q: Reported Replicon Assay Value TD50, compound CCOc1cc(Cl)cc(Cl)c1C1=N[C@H](NC(=O)c2cc(F)ccc2OCCOC)C(=O)Nc2ccccc21 [Example 69] : ____
Result: 17.731 µM

Q: # Replicon Assay Value TD50 lookup, item COCCOc1ncc(Cl)cc1C(=O)NC1N=C(c2c(Cl)cc(Cl)cc2Cl)c2ccccc2NC1=O (stereo not drawn) [Example 32]
Result: >25 µM

Q: Item COCCOc1ncc(Br)cc1C(=O)NC1N=C(c2c(Cl)cc(Cl)cc2Cl)c2ccccc2NC1=O (stereo not drawn) [Example 33] has what recorded Replicon Assay Value TD50?
Result: >25 µM

Q: Reported Replicon Assay Value TD50 for COCCNc1ncc(F)cc1C(=O)NC1N=C(c2c(Cl)cc(Cl)cc2Cl)c2ccccc2NC1=O (stereo not drawn) [Example 42] : what is it?
Result: 17.784 µM
